# target_desc: Plasma kallikrein (Homo sapiens)
# Sequence (P03952 20-390 limits assumed): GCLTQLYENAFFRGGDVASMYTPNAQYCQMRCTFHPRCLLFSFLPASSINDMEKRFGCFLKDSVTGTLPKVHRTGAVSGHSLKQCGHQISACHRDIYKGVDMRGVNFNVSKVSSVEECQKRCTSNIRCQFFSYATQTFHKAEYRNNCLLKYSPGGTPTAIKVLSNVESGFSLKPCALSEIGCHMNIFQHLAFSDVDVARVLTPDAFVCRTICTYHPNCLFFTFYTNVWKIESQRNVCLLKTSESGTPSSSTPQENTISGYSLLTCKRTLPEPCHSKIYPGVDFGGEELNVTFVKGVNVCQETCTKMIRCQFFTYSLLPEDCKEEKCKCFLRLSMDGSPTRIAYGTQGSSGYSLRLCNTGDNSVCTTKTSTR
# Sequence (P03952 391-638 limits assumed): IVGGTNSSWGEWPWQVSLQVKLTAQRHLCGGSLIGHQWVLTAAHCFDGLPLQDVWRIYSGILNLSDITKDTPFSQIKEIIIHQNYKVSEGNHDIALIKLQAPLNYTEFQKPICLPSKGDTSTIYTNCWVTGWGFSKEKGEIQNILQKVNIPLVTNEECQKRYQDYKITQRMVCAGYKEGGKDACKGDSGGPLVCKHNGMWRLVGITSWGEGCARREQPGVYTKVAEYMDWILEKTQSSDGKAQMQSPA
# assay_details: Inhibition of endogenous human plasma kallikrein using Z-Phe-Arg-AMC.HCl as substrate measured after 5 mins by microplate reader analysis
measure_name: IC50 (µM)
Record the value in µM, omitting the unit from your answer.

Below, 4 compounds whose answers are already recorded.
# input Using the record for NCc1cccc(-n2nc(C(F)(F)F)cc2C(=O)Nc2cc(C(N)(CCC3CC3)c3cccc(C(N)=O)c3)ccc2F)c1 (stereo unspecified) , report its IC50.
# output 0.006

# input Using the record for NCc1cccc(-n2nc(C(F)(F)F)cc2C(=O)Nc2cc(C(O)(CCC3CC3)c3ccncc3)ccc2F)c1 (stereo in doubt; 26) , report its IC50.
# output 0.165

# input What IC50 value was documented for this compound, NCc1cccc(-n2nc(C(F)(F)F)cc2C(=O)Nc2cc(C(N)(CCC3CC3)c3ccc(C(N)=O)cc3)ccc2F)c1 (stereo unspecified) ?
# output 0.0038

# input Need IC50 of N#Cc1cccc(C(N)(CCC2CC2)c2ccc(F)c(NC(=O)c3cc(C(F)(F)F)nn3-c3cccc(CN)c3)c2)c1 (stereo in doubt; 38) , thanks.
# output 0.382

Next:
# input Request the reported IC50 associated with NCc1cccc(-n2nc(C(F)(F)F)cc2C(=O)Nc2cccc(C(O)(CCC3CC3)c3cccnc3)c2)c1 (stereo in doubt; 19)
# output 0.264

# input compound: NCc1cccc(-n2nc(C(F)(F)F)cc2C(=O)Nc2cccc(C(NCC3CC3)c3ccccc3)c2)c1 (stereo unspecified) ; wanted: its IC50
# output 0.0193
